assay: NCI Yeast Anticancer Drug Screen. Data for the rad50 strain (AID 155);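 also: 0% = growth of vehicle-only cultures of the same strain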; details: S. cerevisiae rad50 strain growth inhibition; at 5.0 µM (retest, dose inferred, filed as 0.5); active compounds read high
This is part of a sample that, as a whole, favours compounds with a hit. Of some 79,000 tested, about 15% had one in any assay.
recorded_metric: growth inhibition (%)

INSERT INTO assay_data (compound, recorded_measurement) VALUES
  ('OCCN=Cc1cccs1', 1),
  ('O=c1oc2ccccc2c(O)c1/C=N/C(=S)Nc1ccccc1', 13),
  ('O=C1COC(=O)/C1=C\C=C\c1ccccc1', 5),
  ('O=c1[nH]n(CCc2ccccn2)c(=O)c(Cl)c1Cl', -5),
  ('CCOc1c(N=Nc2ccc(Cl)cc2)c(-c2ccccc2)nn1C(N)=S', 3),
  ('C/C(=N\NC(=O)C[n+]1ccccc1)c1sc(-c2nc(C)c(/C(C)=N/NC(=O)C[n+]3ccccc3)s2)nc1C', 95),
  ('C/C(=N\Nc1ccccn1)c1ccccn1', 47),
  ('COc1ccc2ccc(=O)oc2c1CC=C(C)C', 88),
  ('Oc1c(Br)cc(Cl)cc1Br', -4),
  ('CN(C)CCCC(C#N)(CCCN(C)C)c1ccccc1', 15),
  ('O=C(Cc1ccccc1)NC(C(=O)c1ccccc1)c1ccccc1 (stereo unspecified)', 36);

----------
assay: NCI Yeast Anticancer Drug Screen. Data for the sgs1 mgt1 strain (AID 161);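 also: 0% = growth of cultures given vehicle only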; settings: S. cerevisiae sgs1 mgt1 strain, at 50.0 µM, active compounds read high
This is part of a sample that, as a whole, favours compounds with a hit. Of some 79,000 tested, about 15% had one in any assay.
recorded_metric: growth inhibition (%)

INSERT INTO assay_data (compound, recorded_metric, recorded_measurement) VALUES
  ('CC(COC(=O)C(c1ccccc1)C1C=CCCC1)CN1CCCC1 (stereo not given)', 'growth inhibition', 72.8),
  ('CC(C)(CN1CCCCC1)C(/C=C/c1ccc(Cl)c(Cl)c1)=N\NC(=O)N/N=C(/C=C/c1ccc(Cl)c(Cl)c1)C(C)(C)CN1CCCCC1', 'growth inhibition', 92.8),
  ('O=C(O)c1cc2ccc3cccc4ccc(c1)c2c34', 'growth inhibition', 87.3),
  ('Oc1c(Br)ccc2cccnc12', 'growth inhibition', 83.8),
  ('Cc1nn(C(=O)c2ccccc2O)c2c1C(c1ccco1)SC(N)=N2 (stereo not given)', 'growth inhibition', 57),
  ('CCN(CC)CCNC(=O)c1ccc(N=Cc2cc(Cl)cc(Cl)c2O)cc1', 'growth inhibition', 88.8),
  ('CCOC(=O)/C(=N/NS(=O)(=O)c1c(C)cc(C)cc1C)c1ccco1', 'growth inhibition', 50.4),
  ('Cc1cc(=O)n(C)c2c(C)cccc12', 'growth inhibition', 12.4),
  ('Cc1cc(S(=O)(=O)Nc2nc(N)nc(N(C)C)n2)c(SC(C(=O)O)c2ccccc2)cc1Cl (stereo not given)', 'growth inhibition', -0.25),
  ('O=C1c2ccccc2C(=O)c2cc(N3C(=O)C=CC3=O)ccc21', 'growth inhibition', 91.5),
  ('N#CCc1nc(Cl)cc(Cl)n1', 'growth inhibition', 19.8),
  ('CN(C)C1=NC2=S(SC(Nc3ccccc3)=N2)S1 (stereo not given)', 'growth inhibition', -19.1),
  ('CN(C)/C(N)=N\c1nc2ccc(Cl)cc2s1', 'growth inhibition', 8.3),
  ('CCCC(O)CNCc1ccc(N(C)C)cc1 (stereo not given)', 'growth inhibition', 75.6),
  ('FC(F)(F)c1ccc(-c2ccc(OCCN3CCCC3)cc2)cc1', 'growth inhibition', 99.4),
  ('CCC(Sc1ccccc1[N+](=O)[O-])[N+](=O)[O-] (stereo not given)', 'growth inhibition', 49.1),
  ('COC(=O)/C=C1/OC(c2ccccc2)=C(Br)C1=O', 'growth inhibition', 86.5),
  ('CCCCCCC/C=C/C(=O)OC1C(OC2C(OC(CCCCCCC)CC(=O)OC(CCCCCCC)CC(=O)O)OC(C)C(O)C2O)OC(C)C(O)C1O (stereo not given)', 'growth inhibition', 92.7),
  ('CCN1C(Cl)=NS(=O)(=O)c2ccccc21', 'growth inhibition', -8.5),
  ('Cc1ccnc2sc3ccccc3c(=O)c12', 'growth inhibition', 80.6),
  ('CCCCCCN(CCCCCC)P(=O)(N1CC1C)N1CC1C (stereo not given)', 'growth inhibition', 10.1),
  ('N=C(N)c1cccc(-c2ccc(-c3ccccc3)o2)c1', 'growth inhibition', 57.2),
  ('O=C1C(=O)C(Cl)=C(Cl)C(Cl)=C1Cl', 'growth inhibition', 99.5),
  ('CCCC#CC(O)(C(=O)OC1CCN(C)CC1)C1CCCCC1 (stereo not given)', 'growth inhibition', 65.9),
  ('CC1(C)CC(=O)C2=C(C1)OC1=C(CC(C)(C)CC1=O)C2c1ccccc1[N+](=O)[O-] (stereo not given)', 'growth inhibition', -13.5);

----------
test: NCI Yeast Anticancer Drug Screen. Data for the sgs1 mgt1 strain (AID 161);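 also: 0% = growth of cultures given vehicle only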; conditions: S. cerevisiae sgs1 mgt1 strain, at 5.0 µM (retest, dose inferred, filed as 0.5)
Compounds without any hit were thinned out: in the full panel of roughly 79,000, 15% have a hit. The source made the active and inactive calls. Rule as the data show it: active = growth inhibition above about 70%; inactive = the rest.
Labels: class 1 = active, class 0 = inactive

INSERT INTO measurements (compound, qualitative_label) VALUES
  ('CSC1NNC2(C(=O)N1)c1ccccc1-c1ccccc12 (stereo not drawn)', 'class 0'),
  ('CN1CCN(CC(C(=O)O)(c2ccccc2)c2ccccc2)CC1', 'class 0'),
  ('O=[N+]([O-])c1ccc(NS(=O)(=O)c2ccccc2)c(NS(=O)(=O)c2ccccc2)c1', 'class 0'),
  ('CC(=O)OCc1c2ccccc2c(C)c2c1cc(F)c1ccccc12', 'class 0'),
  ('Oc1ccc(Cc2cccc(Br)c2)c(O)c1', 'class 0'),
  ('O=C(CN(Cc1ccccc1)Cc1ccccc1)N1CCc2c([nH]c3ccccc23)C1c1cccnc1 (stereo not drawn)', 'class 0'),
  ('CCCCCCCCCCCN1C(=O)c2ccccc2S1(=O)=O', 'class 0'),
  ('Clc1ccc(OCCC(Cn2ccnc2)c2ccc(Cl)cc2Cl)c(Cl)c1 (stereo not drawn)', 'class 1'),
  ('Cc1nn(C(=S)S)c(C)c1N=Nc1ccc(Br)cc1', 'class 0'),
  ('CC(=O)OC1COC(N2C(=O)C(=O)c3cc(Br)ccc32)C(OC(C)=O)C1OC(C)=O (stereo not drawn)', 'class 0'),
  ('Cc1[nH]c2ccccc2c1/C=C1/CCCCCCC1=O', 'class 0'),
  ('CCCCCCCCC(N)CCCCCCCC', 'class 1'),
  ('CCOC(=O)c1c(N)c(=O)n2c3c(cccc13)CC2', 'class 0'),
  ('O=c1[nH]c(CN2CCCCC2)nn1-c1ccccc1', 'class 0'),
  ('CC1=NC(C)C(C)S1 (stereo not drawn)', 'class 0'),
  ('CC(C)C[C@H](NC(=O)[C@H](Cc1ccccc1)NC(=O)c1cnccn1)B(O)O', 'class 0'),
  ('CC1c2cc(c3c(c2O)CN([C@@H](C)C2CCCCC2)CO3)C(C)c2cc(c3c(c2O)CN([C@@H](C)C2CCCCC2)CO3)C(C)c2cc(c3c(c2O)CN([C@@H](C)C2CCCCC2)CO3)C(C)c2cc1c1c(c2O)CN([C@@H](C)C2CCCCC2)CO1 (stereo partly drawn)', 'class 0'),
  ('CCN1/C(=C/C=C/C=C\C=C\c2sc3ccc4ccccc4c3[n+]2CC)Sc2ccc3ccccc3c21', 'class 0');

----------
Experiment: NCI Yeast Anticancer Drug Screen. Data for the sgs1 mgt1 strain (AID 161);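 also: 0% = growth of cultures given vehicle only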
Conditions: S. cerevisiae sgs1 mgt1 strain, at 50.0 µM, active compounds read high
Method: Growth inhibition of yeast strains with defined genetic alterations is measured as a screen for potential anti-cancer activity. Selected strains with alterations in DNA damage repair or cell cycle control were exposed to compounds and growth inhibition was measured relative to vehicle treated controls. The strain used in this assay is sgs1 mgt1
The panel holds about 79,000 compounds, 15% with a hit somewhere; the sample as a whole holds those more often.
recorded_metric: growth inhibition (%)

INSERT INTO measurements (molecule, recorded_measurement) VALUES
  ('NC(=S)c1cccc(OCCCOc2ccccc2)c1', 98.7),
  ('C=C1CC[C@@H](Br)C(C)(C)[C@]12CCC(C)(O)C(Cl)C2 (stereo partly specified)', 92.2),
  ('COc1ccc(C(=O)Cn2c(C(C)=O)nc3ccccc32)cc1', -14.5),
  ('S=c1[nH]c2ccc(Br)cc2c(=S)n1-c1ccccc1', 89.5),
  ('C/C(=N/Nc1ccc([N+](=O)[O-])cc1[N+](=O)[O-])C(=O)O', 97.5),
  ('CNc1c(C(=O)Nc2ccccc2)c(=O)n(C)c(=O)n1C', 32.8),
  ('COc1ccc(CN2CCCN(Cc3ccc(OC)cc3OC)C2c2cccc([N+](=O)[O-])c2O)c(OC)c1', 77.5),
  ('Nc1nc(-c2ccc(Cl)cc2)cs1', 98.2),
  ('Oc1ccccc1C1CCCCC1', 96.1),
  ('FC(F)(F)COP1(OCC(F)(F)F)=NP(OCC(F)(F)F)(OCC(F)(F)F)=NP(c2ccccc2)(c2ccccc2)=N1', 38.1),
  ('Cc1cc(SCC(=O)c2ccc(Br)cc2)cc(C)[o+]1', 91.5),
  ('N/C(=N\N=C\c1cc(I)cc(I)c1O)NO', 97.6),
  ('O=C1/C(=C\c2ccccc2)C(NC2CCCCC2)c2ccccc21 (stereo unspecified)', 99.7),
  ('CCCC(=O)Oc1ccc(OCc2ccccc2)cc1', 1.6),
  ('O=C1/C(=C/N2CCN(c3ccccc3)CC2)Cc2c(Cl)cccc21', 64.3),
  ('CCOC(=O)C1=C(C)NC(C)=C(C(=O)OCC)C1c1c(-c2ccccc2)noc1C', 2.2),
  ('Cn1c(=O)nc2n(-c3ccc(Cl)cc3)c3cc(Cl)ccc3nc-2c1=O', 7.8),
  ('CCOC(=O)c1ccc(NC(=O)CCl)cc1', 67.5),
  ('CCCCCNc1ccc2c(cc1=O)C(NC(C)=O)CCc1cc(OC)c(OC)c(OC)c1-2 (stereo unspecified)', 18.2),
  ('CN(C)N=Nc1ccc(-c2ccccc2)cc1', 81.8),
  ('O/N=C(/CN1CCN(c2ccccc2)CC1)c1ccccc1', 10.7),
  ('CCN(CC)CCN(C)c1ccc(CO)c2c1C(=O)c1ccccc1S2=O (stereo unspecified)', 96.3),
  ('O=c1[nH]n(CCc2ccccn2)c(=O)c(Cl)c1Cl', 12.4),
  ('Cc1ccc2cc3ccccc3c(-c3ccccc3)c2c1', -9.35),
  ('O=c1ccnc(Nc2ccc[nH]c2=S)[nH]1', 46.2),
  ('N#CC(C(=O)CCc1nc2ccccc2[nH]1)c1c(Cl)cccc1Cl (stereo unspecified)', 19.6),
  ('CC(O[Si](C)(C)C(C)(C)C)C(=O)Sc1ccccn1 (stereo unspecified)', 95.5),
  ('N=Nc1c(OC(=O)Nc2ccccc2)[nH]c2ccccc12', 13.8),
  ('c1ccc2c(c1)[nH]c1c[n+]3c(c[n+]12)[nH]c1ccccc13', 58.9),
  ('Cc1ccc(SSCCCCS(=O)O)cc1', 82.8),
  ('O=C1C=CC2C(=O)c3ccccc3C(=O)C2=C1 (stereo unspecified)', 56.9),
  ('COc1cc(C(c2cc3c(cc2O)OCO3)N2CCOCC2)ccc1O (stereo unspecified)', 73),
  ('CC(=O)Oc1cccc2c(C(=O)CCl)ccnc12', 99.2),
  ('CN(C(=O)c1cccs1)C(=S)N1CCN(c2ccccc2)CC1', 84.8),
  ('CC(=O)OC1C(OC(C)=O)C2C(C)CC3OC(=O)C(C)C3CC2(C)C1OC(C)=O (stereo unspecified)', 73.6),
  ('C/C(=N\NC(=S)N1CCCC1)c1cnccn1', 99.3);

The measured values listed here are drawn from PubChem BioAssay (NCI).
